Test: Degree of solubility of polymerization initiators (3 mass % aqueous solution)
Format: physicochemical
Parameters: key: A: The polymerization initiator was fully dissolved at room temperature.; B: The polymerization initiator was slightly precipitated at room temperature, and was fully dissolved when being heated at 60° C.; The polymerization initiator was not fully dissolved even when being heated at 60° C
Settings: 3 mass % aqueous solution of the polymerization initiator; room temperature / heated at 60° C.
value.type: Degree of solubility

INSERT INTO results (compound, result) VALUES
  ('CC(C)(O)C(=O)c1ccc(OCCO)cc1 [Compound R-1]', 'C'),
  ('CCC(Cc1ccc(S(=O)(=O)O)cc1)(C(=O)c1ccc(N2CCOCC2)cc1)N(C)C (centres unmarked) [Compound R-4]', 'A'),
  ('C[N+](C)(CCCS(=O)(=O)[O-])CCOc1ccc2c(=O)c3ccccc3sc2c1 [Compound I-1]', 'A'),
  ('Cc1c(OCC(O)C[N+](C)(C)C)cc2c(=O)c3ccccc3sc2c1C (centres unmarked) [Compound R-2]', 'A'),
  ('COC(OC)(C(=O)c1ccc(OCC(=O)[O-])cc1)c1ccc(OCC(=O)[O-])cc1.[Na+].[Na+] [Compound R-3]', 'C');
